Assay: Half life in rat at 5 mg/kg, po
Format: ADME, organism-based
Parameters: dose 5 mg/kg, route oral
Conditions: in vivo
readout: half-life (h)
Field format: number, assumed h, no unit text.

Asked: Give a short answer stating reported half-life for `CC(C)(O)[C@@H](c1ccccc1)n1cc(NC(=O)c2n[nH]c3cc(-c4cn[nH]c4)ccc23)cn1` .
Given back: 2.6

----------
Attribute: bioavailability
Assay: Oral bioavailability in rat at 5 mg/kg
Format: ADME, organism-based
Details: in vivo
Field format: number, assumed %, no unit text.

CN(C)CC[C@@H](c1ccccc1)n1cc(NC(=O)c2n[nH]c3cc(-c4cn[nH]c4)ccc23)cn1; 0

Here is another compound to look at.
Asked: Give a short answer stating reported bioavailability for `CC(C)(O)[C@@H](c1ccccc1)n1cc(NC(=O)c2n[nH]c3cc(-c4cn[nH]c4)ccc23)cn1` .
Given back: 9

----------
Experiment: AUC in rat at 1 mg/kg, iv
Format: ADME, organism-based
Set-up: dose 1 mg/kg, route intravenous
Conditions: plasma
readout: AUC (µM·h)
Field format: number, assumed µM·h, no unit text.

CC(C)(O)[C@@H](c1ccccc1)n1cc(NC(=O)c2n[nH]c3cc(-c4cn[nH]c4)ccc23)cn1; 2.5

Here is another compound to look at.
Asked: Give a short answer stating reported AUC for `CN(C)CC[C@@H](c1ccccc1)n1cc(NC(=O)c2n[nH]c3cc(-c4cn[nH]c4)ccc23)cn1` .
Given back: 0.837

----------
Molecular target: Tyrosine-protein kinase ITK/TSK (Homo sapiens, UniProt Q08881)
Sequence (Q08881 whole entry): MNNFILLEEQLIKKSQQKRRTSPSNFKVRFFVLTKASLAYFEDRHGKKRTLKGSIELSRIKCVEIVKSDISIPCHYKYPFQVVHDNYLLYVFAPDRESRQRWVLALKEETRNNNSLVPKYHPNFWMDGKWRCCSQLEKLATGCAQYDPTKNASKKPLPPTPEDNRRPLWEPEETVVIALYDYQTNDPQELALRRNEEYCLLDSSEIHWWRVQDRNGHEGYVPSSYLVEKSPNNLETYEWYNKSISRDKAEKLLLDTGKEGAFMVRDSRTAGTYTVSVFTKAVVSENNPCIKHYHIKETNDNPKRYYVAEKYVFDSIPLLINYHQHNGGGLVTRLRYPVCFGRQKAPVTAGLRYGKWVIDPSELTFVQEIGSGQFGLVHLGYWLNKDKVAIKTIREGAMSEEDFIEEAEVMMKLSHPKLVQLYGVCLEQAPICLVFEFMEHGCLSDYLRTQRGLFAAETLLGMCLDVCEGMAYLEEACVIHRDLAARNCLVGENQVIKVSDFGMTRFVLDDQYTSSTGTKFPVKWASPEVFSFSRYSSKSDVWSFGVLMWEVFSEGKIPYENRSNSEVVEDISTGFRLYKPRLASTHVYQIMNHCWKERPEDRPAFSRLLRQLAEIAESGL
readout: Ki

Asked: Provide Tyrosine-protein kinase ITK/TSK (Homo sapiens, UniProt Q08881) Ki reading for `O=C(Nc1ncc(Cc2ccccc2)s1)c1n[nH]c2ccccc12` .
Given back: > 4 nM

----------
Assay: Half life in rat at 1 mg/kg, iv
Format: ADME, organism-based
Set-up: dose 1 mg/kg, route intravenous
Details: in vivo
readout: half-life
Quick note: unit goes after the number.

CN(C)CC[C@@H](c1ccccc1)n1cc(NC(=O)c2n[nH]c3cc(-c4cn[nH]c4)ccc23)cn1; 5.7 h

Here is another molecule to look at.
Asked: Give a short answer stating reported half-life for `CC(C)(O)[C@@H](c1ccccc1)n1cc(NC(=O)c2n[nH]c3cc(-c4cn[nH]c4)ccc23)cn1` .
Given back: 1.8 h
